Target: Serine protease 1 (Bos taurus, UniProt P00760)
Sequence (P00760 whole entry): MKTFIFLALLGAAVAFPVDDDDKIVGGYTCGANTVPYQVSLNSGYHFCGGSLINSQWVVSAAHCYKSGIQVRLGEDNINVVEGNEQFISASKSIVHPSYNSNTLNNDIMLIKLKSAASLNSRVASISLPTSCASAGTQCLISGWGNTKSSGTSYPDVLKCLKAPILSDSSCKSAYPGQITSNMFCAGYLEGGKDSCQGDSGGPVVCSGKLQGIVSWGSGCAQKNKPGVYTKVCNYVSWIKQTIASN
Mark condition met only for Ki values smaller than 9 µM; exact matches and larger values are condition not met.

chemical_string=CN(C(=O)[C@H](Cc1ccc(CN)cc1)NS(=O)(=O)c1ccc2c(c1)CCCC2)C1CCCC1 class_assignment="condition not met"
chemical_string=CN(C)c1cccc2c(S(=O)(=O)N[C@@H](Cc3ccc(CN)cc3)C(=O)N(C)C3CCCC3)cccc12 class_assignment="condition not met"
chemical_string=CN(C(=O)[C@H](Cc1ccc(CN)cc1)NS(=O)(=O)c1ccc(C2CCCCC2)cc1)C1CCCC1 class_assignment="condition met"
chemical_string=COc1ccc2cc(S(=O)(=O)N[C@@H](Cc3ccc(CN)cc3)C(=O)N(C)C3CCCC3)ccc2c1 class_assignment="condition not met"
